All figures here come from the supplement of paper PMC9170038.

System: MS2 coat protein
Assay: apparent KD of MS2 coat protein; higher = weaker reporter binding
Conditions: Eterna round: R107; input ligand: none
endpoint: apparent KD of MS2 coat protein (nM)
Your answer is read as nM, so omit the unit and give the number.

Please fill in: apparent KD of MS2 coat protein reported for GAUUGGUAUAGAAGGAGCGUCGAAAAUGGGUAAACAUGAGGAUCACCCAUGUAAAGGGAACGACAGGUAGGUCGCUAUAUUAAUC [AstromonsSSArgB#30] = 174

Please fill in: apparent KD of MS2 coat protein reported for UGCCGAGACGUGGAUUACCCAUGUACAGAAGGAGCGCCCGAAAGGGCAGGUAGGUCGCUGAGGACAUGAGGAUCACCCAUGUCGA = 54.8

Please fill in: apparent KD of MS2 coat protein reported for GAGUCCGCGGCGGCCGCCACUCGCGGCGCCACAUGGCGCCGGGACAUGAGGAUCACCCAUGUCCCGAGGACCGGGCCGAUCCUCA [Same State Typrtophan B GF4] = 18.1

Please fill in: apparent KD of MS2 coat protein reported for ACCUGUACGAAAAGUGCAGGACACGGAAUACGAGGACCGGUACGGCCGCCACUCGGAUAAAACCUGAGGAUCACCCUGGUCCGUG [TrypAS 14 #AlternativeMS2 #Zipper #StaticStem] = 24.6

Please fill in: apparent KD of MS2 coat protein reported for AUUGACGUUGCGGCCGCCACUAGGCGUUCCCGGACAUGAGGAUCACCCAUGUGCUAGAGUGUAACUAGGACCGGGUAACCUCAGC [Verevean] = 103

Please fill in: apparent KD of MS2 coat protein reported for GGUCUCGAGGGCGAUACCAGCUUGAUCGUACUGGCCUGGUACAUGAGGAUCACCCAUGUAAGCCCUUGGCAGCGCGCUCGAGACC [#1 Exclusion - Theophylline B Attempt #6 (HarryS)] = 11

Please fill in: apparent KD of MS2 coat protein reported for CGCUGGCCACAUGAGGAUCACCCAUGUGAAGGAGCGGCGAAUAAGCCAGGUAGGUCGCGCAUGAAUAAAUCAUGUAGGUUGCGAA [XArg-A 11 V2] = 13.4

Please fill in: apparent KD of MS2 coat protein reported for UGGUACAUGGCGGCCGCCACUUCACGUAAAAUAAAAGCGUGAGGAUCACCCAUGCAAUAAGUUGGGAGGACCGGGUCAUGUACCU = 287

Please fill in: apparent KD of MS2 coat protein reported for UGAUUGAACGGAAGGAGCGUGUAAGAACAAGAACAUGAGGAUCACCCAUGUAUUAAUUUAACACAGGUAGGUCGCCGAGAGAUUG [11.D] = 14.6

Please fill in: apparent KD of MS2 coat protein reported for GGGCCUAUAAGCAGGCCCACAGCGGGUGAUACCAGCAAUAAAACUUGCCCUUGGCAGCACACAGCUACAUGAGGAUCACCCAUGU [Beator] = 45.1

Please fill in: apparent KD of MS2 coat protein reported for GCGGGACUUUCGGCCGCCACUGAGAGAGUCGUGUGAACAUGAGGAUCACCCAUGUAAUAUAUAUACAGGACCGGGAGGGUUGCGC [4.Q] = 13.4

Please fill in: apparent KD of MS2 coat protein reported for GGAUAGGACACGGCCGCCACUAGCUAGGAUACUAGCAACAUUUCCUCACCUGAGGAUCACCCUGGUAGGACCGGGUGUCCUAUCG = 353
